- assaySystem: T1, CD3 epsilon homodimer protein (UniProt P07766 23-126)
- T1 construct: also called CD3 (CD3 epsilon)
- T1 sequence (P07766 23-126): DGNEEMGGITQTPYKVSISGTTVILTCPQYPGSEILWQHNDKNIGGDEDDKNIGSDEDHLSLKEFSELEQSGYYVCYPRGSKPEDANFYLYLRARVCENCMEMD
- testMethodNotes: SPR Biacore T200, CD3e homodimer on chip, vs unaltered GLS3000 antibody
# ratio of amounts bound (Z=Y/X) values compiled below
In your answer, state the number alone without any accompanying words.

[
  {
    "binder": "GLS3000 N28S (antibody, name in Kabat numbering, V domains shown, one-arm IgG as m2) VH: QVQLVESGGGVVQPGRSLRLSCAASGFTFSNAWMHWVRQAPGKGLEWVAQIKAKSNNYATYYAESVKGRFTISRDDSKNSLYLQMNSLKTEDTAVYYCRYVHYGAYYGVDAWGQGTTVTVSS VL: DIVMTQSPLSLPVTPGEPASISCRSSQSLVHSSRNTYLHWYQQKPGQAPRLLIYKVSNRFSGVPDRFSGSGSGTDFTLKISRVEAEDVGVYYCGQGTQVPYTFGQGTKLEIK",
    "ratio of amounts bound (Z=Y/X)": 0.32
  },
  {
    "binder": "GLS3000 S56Y (antibody, name in Kabat numbering, V domains shown, one-arm IgG as m2) VH: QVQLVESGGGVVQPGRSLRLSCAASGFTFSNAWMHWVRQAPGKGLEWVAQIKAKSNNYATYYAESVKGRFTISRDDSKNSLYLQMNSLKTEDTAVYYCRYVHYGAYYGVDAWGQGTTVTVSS VL: DIVMTQSPLSLPVTPGEPASISCRSSQSLVHSNRNTYLHWYQQKPGQAPRLLIYKVSNRFYGVPDRFSGSGSGTDFTLKISRVEAEDVGVYYCGQGTQVPYTFGQGTKLEIK",
    "ratio of amounts bound (Z=Y/X)": 1.46
  }
]

Requested read-out: ratio of amounts bound (Z=Y/X). Entry: GLS3000 L27bP (antibody, name in Kabat numbering, V domains shown, one-arm IgG as m2) VH: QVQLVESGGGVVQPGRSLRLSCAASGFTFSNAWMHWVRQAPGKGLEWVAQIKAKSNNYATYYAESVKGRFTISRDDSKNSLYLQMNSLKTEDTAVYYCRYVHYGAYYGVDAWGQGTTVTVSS VL: DIVMTQSPLSLPVTPGEPASISCRSSQSPVHSNRNTYLHWYQQKPGQAPRLLIYKVSNRFSGVPDRFSGSGSGTDFTLKISRVEAEDVGVYYCGQGTQVPYTFGQGTKLEIK
0.91

What value of measured ratio of amounts bound (Z=Y/X) is listed for GLS3000 F55H (antibody, name in Kabat numbering, V domains shown, one-arm IgG as m2) VH: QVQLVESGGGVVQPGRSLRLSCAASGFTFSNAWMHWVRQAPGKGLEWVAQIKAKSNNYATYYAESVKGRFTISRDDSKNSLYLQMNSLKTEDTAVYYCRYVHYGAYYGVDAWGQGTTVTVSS VL: DIVMTQSPLSLPVTPGEPASISCRSSQSLVHSNRNTYLHWYQQKPGQAPRLLIYKVSNRHSGVPDRFSGSGSGTDFTLKISRVEAEDVGVYYCGQGTQVPYTFGQGTKLEIK ?
0.94

Fill blank: measured ratio of amounts bound (Z=Y/X) of the binder GLS3000 H27dQ (antibody, name in Kabat numbering, V domains shown, one-arm IgG as m2) VH: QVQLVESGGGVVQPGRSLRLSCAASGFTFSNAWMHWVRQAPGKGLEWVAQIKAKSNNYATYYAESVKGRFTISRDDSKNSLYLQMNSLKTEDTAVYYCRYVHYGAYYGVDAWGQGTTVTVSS VL: DIVMTQSPLSLPVTPGEPASISCRSSQSLVQSNRNTYLHWYQQKPGQAPRLLIYKVSNRFSGVPDRFSGSGSGTDFTLKISRVEAEDVGVYYCGQGTQVPYTFGQGTKLEIK is ____.
0.25

Any idea what ratio of amounts bound (Z=Y/X) was measured for GLS3000 Q90Y (antibody, name in Kabat numbering, V domains shown, one-arm IgG as m2) VH: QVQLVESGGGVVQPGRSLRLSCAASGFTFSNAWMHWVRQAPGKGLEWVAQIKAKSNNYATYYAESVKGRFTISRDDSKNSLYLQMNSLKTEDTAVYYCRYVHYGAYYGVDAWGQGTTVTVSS VL: DIVMTQSPLSLPVTPGEPASISCRSSQSLVHSNRNTYLHWYQQKPGQAPRLLIYKVSNRFSGVPDRFSGSGSGTDFTLKISRVEAEDVGVYYCGYGTQVPYTFGQGTKLEIK ?
0.17

// query ratio of amounts bound (Z=Y/X) value for entry GLS3000 N53K (antibody, name in Kabat numbering, V domains shown, one-arm IgG as m2) VH: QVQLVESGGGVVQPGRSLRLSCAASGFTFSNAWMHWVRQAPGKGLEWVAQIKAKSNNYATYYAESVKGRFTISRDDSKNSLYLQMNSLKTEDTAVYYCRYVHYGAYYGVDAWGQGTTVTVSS VL: DIVMTQSPLSLPVTPGEPASISCRSSQSLVHSNRNTYLHWYQQKPGQAPRLLIYKVSKRFSGVPDRFSGSGSGTDFTLKISRVEAEDVGVYYCGQGTQVPYTFGQGTKLEIK
1.08

Can you look up the measured ratio of amounts bound (Z=Y/X) of GLS3000 S52P (antibody, name in Kabat numbering, V domains shown, one-arm IgG as m2) VH: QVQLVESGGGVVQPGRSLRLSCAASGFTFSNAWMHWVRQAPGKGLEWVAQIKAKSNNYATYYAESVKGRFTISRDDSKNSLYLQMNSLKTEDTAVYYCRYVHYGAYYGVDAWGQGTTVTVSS VL: DIVMTQSPLSLPVTPGEPASISCRSSQSLVHSNRNTYLHWYQQKPGQAPRLLIYKVPNRFSGVPDRFSGSGSGTDFTLKISRVEAEDVGVYYCGQGTQVPYTFGQGTKLEIK for me?
0.33

For the binder shown here, GLS3000 H34M (antibody, name in Kabat numbering, V domains shown, one-arm IgG as m2) VH: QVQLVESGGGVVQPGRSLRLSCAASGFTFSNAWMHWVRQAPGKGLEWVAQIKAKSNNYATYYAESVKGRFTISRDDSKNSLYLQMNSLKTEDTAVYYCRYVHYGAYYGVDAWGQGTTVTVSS VL: DIVMTQSPLSLPVTPGEPASISCRSSQSLVHSNRNTYLMWYQQKPGQAPRLLIYKVSNRFSGVPDRFSGSGSGTDFTLKISRVEAEDVGVYYCGQGTQVPYTFGQGTKLEIK , give the reported ratio of amounts bound (Z=Y/X).
0.35

Value lookup for ratio of amounts bound (Z=Y/X); key = GLS3000 F55P (antibody, name in Kabat numbering, V domains shown, one-arm IgG as m2) VH: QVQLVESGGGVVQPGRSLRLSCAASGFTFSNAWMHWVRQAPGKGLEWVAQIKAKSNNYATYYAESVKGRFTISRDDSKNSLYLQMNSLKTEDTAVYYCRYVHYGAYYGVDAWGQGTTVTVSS VL: DIVMTQSPLSLPVTPGEPASISCRSSQSLVHSNRNTYLHWYQQKPGQAPRLLIYKVSNRPSGVPDRFSGSGSGTDFTLKISRVEAEDVGVYYCGQGTQVPYTFGQGTKLEIK
1.16

Entry under review: GLS3000 S56P (antibody, name in Kabat numbering, V domains shown, one-arm IgG as m2) VH: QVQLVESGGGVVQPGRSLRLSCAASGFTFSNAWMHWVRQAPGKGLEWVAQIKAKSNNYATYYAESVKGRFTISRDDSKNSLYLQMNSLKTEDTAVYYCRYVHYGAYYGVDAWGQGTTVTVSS VL: DIVMTQSPLSLPVTPGEPASISCRSSQSLVHSNRNTYLHWYQQKPGQAPRLLIYKVSNRFPGVPDRFSGSGSGTDFTLKISRVEAEDVGVYYCGQGTQVPYTFGQGTKLEIK . Reported ratio of amounts bound (Z=Y/X)?
0.95
